Can you tell me IC50 for the items I'm about to list?
Hi! Could you send only the number? It should be in µM, unit omitted.

// fetch IC50 for `c1ccc(CCCc2cc[n+](CCCCCCCCCCCC[n+]3ccc(CCCc4ccccc4)cc3)cc2)cc1` ; system: Phospholipase A2, major isoenzyme (Sus scrofa, UniProt P00592)
Sequence (P00592 whole entry): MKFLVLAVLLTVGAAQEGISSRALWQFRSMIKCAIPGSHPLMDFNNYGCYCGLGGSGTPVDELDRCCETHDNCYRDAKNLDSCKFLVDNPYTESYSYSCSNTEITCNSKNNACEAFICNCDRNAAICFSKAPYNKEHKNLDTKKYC
104

# lookup: Phospholipase A2, major isoenzyme (Sus scrofa, UniProt P00592) IC50, key = `CCCCC(CCCC)c1cc[n+](CCCCCCCCCCCC[n+]2ccc(C(CCCC)CCCC)cc2)cc1`
53

# return IC50 of `CCCCCc1cc[n+](CCCCCCCCCCCC[n+]2ccc(CCCCC)c(C)c2)cc1C` (system: Phospholipase A2, major isoenzyme (Sus scrofa, UniProt P00592))
134

Give the observed IC50 of `C=CCCCc1cc[n+](CCCCCCCCCCCC[n+]2ccc(CCCC=C)cc2)cc1` for Phospholipase A2, major isoenzyme (Sus scrofa, UniProt P00592).
56

Fill: IC50 (Phospholipase A2, major isoenzyme (Sus scrofa, UniProt P00592)) for this compound `CCCCCc1cc[n+](CCCCCCCCCCCC[n+]2ccc(CCCCC)c(CCCCC)c2)cc1CCCCC`
52

Find IC50 for `CC(C)CCc1cc[n+](CCCCCCCCCCCC[n+]2ccc(CCC(C)C)cc2)cc1` on Phospholipase A2, major isoenzyme (Sus scrofa, UniProt P00592) and write it down.
67

* * *

- assay-summary: Cytotoxicity against human erythrocytes assessed as hemolysis after 1 hr
- Assay type: cell-based, Erythrocyte
value-type: HC50 at 1 h

Tell me measured HC50 at 1 h for `CC(C)(C)CCc1cc[n+](CCCCCCCCCCCC[n+]2ccc(CCC(C)(C)C)cc2)cc1` please.
> 350 µM

Complete the entry with HC50 at 1 h for `OCCCc1cc[n+](CCCCCCCCCCCC[n+]2ccc(CCCO)cc2)cc1`
> 350 µM

Recall and state the measured HC50 at 1 h for `CCCCCc1cc[n+](CCCCCCCCCCCC[n+]2ccc(CCCCC)cc2)cc1.[Cl-].[Cl-]` .
> 350 µM

Report measured HC50 at 1 h; entry is `CCCCc1cc[n+](CCCCCCCCCCCC[n+]2ccc(CCCC)cc2)cc1`
> 350 µM

Return HC50 at 1 h for the following compound: `CCCCCc1cccc[n+]1CCCCCCCCCCCC[n+]1ccccc1CCCCC`
> 350 µM

Indicate its recorded HC50 at 1 h; the compound in question is `C=CCCCc1cc[n+](CCCCCCCCCCCC[n+]2ccc(CCCC=C)cc2)cc1`
> 350 µM

Please supply the value of reported HC50 at 1 h for the item `CC(C)CCCc1cc[n+](CCCCCCCCCCCC[n+]2ccc(CCCC(C)C)cc2)cc1`
227 µM

Report HC50 at 1 h, nothing else, for this compound: `CCCCCCCCc1cc[n+](CCCCCCCCCCCC[n+]2ccc(CCCCCCCC)cc2)cc1`
98 µM

Retrieve HC50 at 1 h measured for `CC(C)CCc1cc[n+](CCCCCCCCCCCC[n+]2ccc(CCC(C)C)cc2)cc1` and print it.
> 350 µM

Respond only with HC50 at 1 h recorded for `CCCCC(CCCC)c1cc[n+](CCCCCCCCCCCC[n+]2ccc(C(CCCC)CCCC)c(C)c2)cc1C`
31 µM

Respond only with HC50 at 1 h recorded for `CCCCC(CCCC)c1cc[n+](CCCCCCCCCCCC[n+]2ccc(C(CCCC)CCCC)cc2)cc1`
124 µM

Identify measured HC50 at 1 h associated with `c1ccc(CCCc2cc[n+](CCCCCCCCCCCC[n+]3ccc(CCCc4ccccc4)cc3)cc2)cc1`
67 µM

Give reported HC50 at 1 h value for `c1cc[n+](CCCCCCCCCCCC[n+]2ccccc2)cc1`
> 350 µM

Determine from records and report HC50 at 1 h for `CCCCCc1cc[n+](CCCCCCCCCCCC[n+]2ccc(CCCCC)c(CCCCC)c2)cc1CCCCC`
17.5 µM

Fill in reported HC50 at 1 h for this entry: `CCCCCCc1cc[n+](CCCCCCCCCCCC[n+]2ccc(CCCCCC)cc2)cc1`
129 µM

State its HC50 at 1 h: `CCCCCc1cc[n+](CCCCCCCCCCCC[n+]2ccc(CCCCC)c(C)c2)cc1C`
> 350 µM

Look up and state reported HC50 at 1 h for `CC(C)(C)c1cc[n+](CCCCCCCCCCCC[n+]2ccc(C(C)(C)C)cc2)cc1`
> 350 µM

Quote HC50 at 1 h reported for `CCCCCc1ccc[n+](CCCCCCCCCCCC[n+]2cccc(CCCCC)c2)c1` please.
> 350 µM
